- Tested on: 786-0 renal
- Protocol: NCI-60 one-dose screen, 48 h
- Experimental Setup: 10 µM unless noted
About 83,000 compounds went through this panel and 20% of them were active in at least one assay; those are over-represented in the sample as a whole. Calls of active or inactive are those of the source. How the source made its calls: active means growth percent below 10; inactive means the rest.
Would you mind answering with one of these outcomes? true (1) (active), false (0) (inactive)

Example entries begin here.
| Compound | Experimental Target | Cat |
| --- | --- | --- |
| Cn1cc(-c2noc(-c3cn(C)c4ncc(F)cc34)n2)c2cc(Cl)ccc21 | 786-0 renal | true (1) |
| C[n+]1cccc(NC(=O)c2ccc3ccc4ccc(C(=O)Nc5ccc[n+](C)c5)nc4c3n2)c1 | 786-0 renal | false (0) |
| O=C(O)CC1CCCCC1c1ccccc1 (configuration not stated) | 786-0 renal | false (0) |
| COc1ccc2nc3c(cc2c1)C(=O)CC(C(F)(F)F)C3 (configuration not stated) | 786-0 renal | false (0) |
| CCN(CC)c1ccc2cc(C(Nc3ccc(C)cc3)c3nnnn3C(C)(C)C)c(=O)oc2c1 (configuration not stated) | 786-0 renal | false (0) |
| c1ccc(-c2n[nH]c(-c3ccccn3)n2)nc1 | 786-0 renal | false (0) |

q: Which outcome was entered for the compound CN(C)Cc1ccc[nH]1 in this test?
a: false (0)

q: Which outcome was entered for the compound CCOc1cc(/C=N\NC(=O)N/N=C/c2ccc(O)c(OCC)c2)ccc1O in this test?
a: false (0)

q: Which outcome was entered for the compound CCOC(=O)c1nc2c3ccccc3ccn2c1C(=O)OC in this test?
a: false (0)

q: Which outcome was entered for the compound CCN(CC)CCCOc1ccc2c(c1)O/C(=C\c1cccc(OC)c1)C2=O in this test?
a: false (0)

q: Which outcome was entered for the compound CC(C)(C)c1cc(C(=O)Nc2cc3ccccc3cc2C(=O)NCCN)cc(C(C)(C)C)c1 in this test?
a: true (1)

q: Which outcome was entered for the compound COc1cc(OC)cc(C(=O)Nc2cc(-c3cccnc3)nc(NCCCN3CCOCC3)n2)c1 in this test?
a: false (0)

* * *

- System: IGROV1 ovarian
- Protocol: NCI-60 one-dose screen, 48 h
- Experimental Setup: 10 µM unless noted
The panel holds about 83,000 compounds, 20% with a hit somewhere; the sample as a whole holds those more often. Active and inactive are the calls of the source. How the source made its calls: active means growth percent below 10; inactive means the rest.
Would you mind answering with one of these outcomes? true for active, false for inactive

q: Which outcome was entered for the compound c1ccc2c(c1)CN(CCCN1CCOCC1)C2 in this test?
a: false

* * *

- Test system: HCT-116 colon
- Protocol: NCI-60 one-dose screen, 48 h (100 = growth as untreated, 0 = no growth, -100 = all killed)
- Experimental Setup: 10 µM unless noted
Compounds without any hit were thinned out: in the full panel of roughly 83,000, 20% have a hit. Calls of active or inactive are those of the source. The calls were made as follows: active = growth percent below 10; inactive = the rest.
Test Readout: growth

These recorded examples may help you get a feel for the data.
| Line Notation | growth |
| --- | --- |
| Cc1ccc(S(=O)(=O)Oc2ccc(Br)cc2Br)cc1 | 49.3% (inactive) |
| C=C(C)[C@@H]1CC[C@]2(C)[C@H](CC[C@@H]3[C@@H]([C@@](C)(O)CCC=C(C)C)CC[C@]32C)[C@@]1(C)CCC(=O)N1CCN(C)CC1 | -85.7% [100 µM] (active) |
| Cc1ccc(NC(=O)N[C@@H](Cc2cc(F)cc(F)c2)C(=O)N[C@@H]2C(=O)N3CCC[C@H]3C(=O)N3CCCC[C@H]3C(=O)N[C@@H](C)C(=O)N3C[C@H](C)C[C@H]3C(=O)O[C@H]2C)cc1 | 11.2% (inactive) |

q: Suppose we examine the compound COCCCNc1nc(NC(=O)c2cc(OC)cc(OC)c2)cc(-c2cccnc2)n1 ; what growth value has been reported?
a: 90.3% (inactive)
